Test system: HeLa cells
PROTOCOL_NOTES: Confocal laser scanning microscopy and degradation study with PA library and HeLa cells
Format: cell-based
CONDITION_DETAILS: HeLa cells, 3 days
Where a SMILES comes first, the peptide text is derived from it. The star is where a group is joined. X1 = CC/C=C\C/C=C\C/C=C\C/C=C\C/C=C\CCCC(=O)*; Fmoc = O=C(OCC1c2ccccc2-c2ccccc21)*; Palmitoyl = CCCCCCCCCCCCCCCC(=O)*; Lauroyl = CCCCCCCCCCCC(=O)*; Nonanoyl = CCCCCCCCC(=O)*
RECORDED_ENDPOINT: degradability (in words)

Below are worked cases with known answers.
{"columns": ["COMPOUND", "EXPERIMENTAL_SYSTEM", "RECORDED_ENDPOINT", "MEASURED_RESULT"],
 "data": [
  ["CCCCCCCCCCCCCCCC(=O)N[C@H](C(=O)N[C@H](C(=O)N[C@@H](CCC(N)=O)C(=O)N[C@@H](CCCCN)C(=O)N[C@H](C(=O)N[C@@H](CCCCN)C(N)=O)[C@@H](C)CC)[C@@H](C)CC)[C@@H](C)CC [Pat15, C16-IIQKIK-NH2] (Palmitoyl-IIQKIK-NH2)", "HeLa cells", "degradability (in words)", "degradable PA"],
  ["CC/C=C\\C/C=C\\C/C=C\\C/C=C\\C/C=C\\CCCC(=O)N[C@H](C(=O)N[C@H](C(=O)N[C@H](C(=O)N[C@@H](C)C(=O)N[C@@H](C)C(=O)N[C@@H](C)C(=O)N[C@@H](CCCCN)C(=O)N[C@@H](CCCCN)C(=O)N[C@@H](CCCCN)C(N)=O)C(C)C)C(C)C)C(C)C [Pat10] (X1-VVVAAAKKK-NH2)", "HeLa cells", "degradability (in words)", "degradable PA"],
  ["CC(C)[C@H](NC(=O)OCC1c2ccccc2-c2ccccc21)C(=O)N[C@H](C(=O)N[C@H](C(=O)N[C@@H](C)C(=O)N[C@@H](C)C(=O)N[C@@H](C)C(=O)N[C@@H](CCCCN)C(=O)N[C@@H](CCCCN)C(=O)N[C@@H](CCCCN)C(N)=O)C(C)C)C(C)C [Pat12] (Fmoc-VVVAAAKKK-NH2)", "HeLa cells", "degradability (in words)", "non-degradable PA"],
  ["CCCCCCCCC(=O)N[C@H](C(=O)N[C@H](C(=O)N[C@H](C(=O)N[C@@H](C)C(=O)N[C@@H](C)C(=O)N[C@@H](C)C(=O)N[C@@H](CCCCN)C(=O)N[C@@H](CCCCN)C(=O)N[C@@H](CCCCN)C(N)=O)C(C)C)C(C)C)C(C)C [Pat8] (Nonanoyl-VVVAAAKKK-NH2)", "HeLa cells", "degradability (in words)", "non-degradable PA"],
  ["CCCCCCCCCCCCCCCC(=O)N[C@@H](CC(C)C)C(=O)N[C@@H](CC(N)=O)C(=O)NCC(=O)NCC(=O)N[C@H](C(=O)N[C@@H](CCCCN)C(=O)N[C@@H](CCCCN)C(N)=O)C(C)C [Pat19, C16-LNGGVKK-NH2] (Palmitoyl-LNGGVKK-NH2)", "HeLa cells", "degradability (in words)", "degradable PA"],
  ["CCCCCCCCCCCC(=O)N[C@H](C(=O)N[C@H](C(=O)N[C@H](C(=O)N[C@@H](C)C(=O)N[C@@H](C)C(=O)N[C@@H](C)C(=O)N[C@@H](CCCCN)C(=O)N[C@@H](CCCCN)C(=O)N[C@@H](CCCCN)C(N)=O)C(C)C)C(C)C)C(C)C [Pat7] (Lauroyl-VVVAAAKKK-NH2)", "HeLa cells", "degradability (in words)", "non-degradable PA"]
]}

Task item: Return degradability (in words) for the following compound: CCCCCCCCCCCCCCCC(=O)N[C@@H](C)C(=O)N[C@@H](CC(C)C)C(=O)N[C@@H](C)C(=O)N[C@@H](C)C(=O)NCC(=O)N[C@@H](CCCCN)C(=O)N[C@@H](CCCCN)C(N)=O [Pat20, C16-ALAAGKK-NH2] (Palmitoyl-ALAAGKK-NH2)
Reply: degradable PA

Task item: Return degradability (in words) for the following compound: CCCCCCCCCCCCCCCC(=O)N[C@@H](C)C(=O)N[C@@H](CCCCN)C(=O)N[C@@H](C)C(=O)N[C@H](C(=O)NCC(=O)N[C@@H](CCCCN)C(N)=O)C(C)C [Pat31, C16-AKAVGK-NH2] (Palmitoyl-AKAVGK-NH2)
Reply: degradable PA

All values here come from patent EP4458977A1.
